The reported measurements were obtained from patent US12415770B2.

# pEC50 per record follows
- measured-target: LRH-1 (Homo sapiens, UniProt O00482)
- Construct: The transfected plasmids included full-length LRH-1 in a pCI vector; expressed in transfected cells; host or cells: HeLa
- Sequence (O00482 whole entry): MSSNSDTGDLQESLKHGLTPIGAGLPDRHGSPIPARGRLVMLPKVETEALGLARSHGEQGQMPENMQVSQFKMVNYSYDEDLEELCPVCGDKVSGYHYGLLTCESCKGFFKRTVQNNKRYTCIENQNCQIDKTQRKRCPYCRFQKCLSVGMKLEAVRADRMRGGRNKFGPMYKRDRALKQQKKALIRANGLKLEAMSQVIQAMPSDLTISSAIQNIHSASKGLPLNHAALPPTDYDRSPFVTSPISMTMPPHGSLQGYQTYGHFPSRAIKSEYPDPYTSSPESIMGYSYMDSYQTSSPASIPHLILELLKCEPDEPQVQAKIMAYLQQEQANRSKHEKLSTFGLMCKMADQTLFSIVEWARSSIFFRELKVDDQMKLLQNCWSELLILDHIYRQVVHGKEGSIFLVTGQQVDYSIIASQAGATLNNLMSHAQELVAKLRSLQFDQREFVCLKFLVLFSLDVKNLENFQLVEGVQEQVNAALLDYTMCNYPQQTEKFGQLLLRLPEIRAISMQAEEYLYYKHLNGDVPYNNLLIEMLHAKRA
- experiment: Luciferase reporter assay (SHP-luc) in HeLa cells transfected with full-length LRH-1
- Type: cell-based
- condition-summary: HeLa cells, SHP-luc reporter, 24 hours, 0.03-30 μM
The meaning of pEC50 here: minus log10 of the concentration in molar units.

Task: Query (compound): C=C(c1ccccc1)[C@@]12CC[C@@H](O)[C@@H]1CC(CCCCCCC(=O)O)=C2c1ccccc1 (relative stereo) [Compound 8f] ; field requested: pEC50
Result: 5.40

Task: Dear colleague, I am looking for the recorded pEC50 of the following compound: C=C(c1ccccc1)[C@@]12CC[C@@H](O)[C@@H]1CC(CCCCCCCCCCC(=O)O)=C2c1ccccc1 (relative stereo) [Compound 12f]
Result: 6.52

Task: Fill blank: measured pEC50 of the compound C=C(c1ccccc1)[C@@]12CC[C@@H](O)[C@@H]1CC(CCCCCCCC(=O)O)=C2c1ccccc1 (relative stereo) [Compound 9f] is ____.
Result: 5.40

Task: Item under review: C=C(c1ccccc1)C12CCC(O)C1CC(CCCCCCCCCO)=C2c1ccccc1 (stereo not shown) [Compound 10e] . Reported pEC50?
Result: 6.00

Task: What value of pEC50 has been reported for the following compound? C=C(c1ccccc1)C12CCC(O)C1CC(CCCCCCCCCCCOP(=O)([O-])OCC[N+](C)(C)C)=C2c1ccccc1 (stereo not shown) [Compound 12g]
Result: 5.29

Task: Consider the compound shown here: C=C(c1ccccc1)C12CCC(O)C1CC(CCCCCCCCCCCO)=C2c1ccccc1 (stereo not shown) [Compound 12e] What is its recorded pEC50?
Result: 5.70

Task: If you can, please state the reported pEC50 value of C=C(c1ccccc1)[C@@]12CC[C@@H](O)[C@@H]1CC(CCCCO)=C2c1ccccc1 (relative stereo) [Compound 5e] .
Result: 5.85

---

- measured-target: LRH-1 LBD (Homo sapiens, UniProt O00482)
- Construct: LRH-1 LBD (residues 299-541) in the pMSC7 vector was expressed in BL21 (DE3) pLysS E. coli; made in house; host or cells: E. coli BL21 (DE3) pLysS
- Sequence (O00482 299-541): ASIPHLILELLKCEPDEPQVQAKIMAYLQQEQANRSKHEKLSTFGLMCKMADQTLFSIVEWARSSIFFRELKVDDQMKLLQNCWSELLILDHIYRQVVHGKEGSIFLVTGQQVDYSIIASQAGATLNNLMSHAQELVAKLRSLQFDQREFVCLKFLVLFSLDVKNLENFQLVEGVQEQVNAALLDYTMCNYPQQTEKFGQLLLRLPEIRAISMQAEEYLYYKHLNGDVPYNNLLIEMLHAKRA
- experiment: Thermofluor (DSF) assay, purified LRH-1 LBD-His protein
- Format: binding
- condition-summary: 50 μM compound; relative to DLPC-bound LRH-1; read-out: ΔTm (mean +/− SEM) (° C.)
result-type: ΔTm at 50 µM

Task: # query: ΔTm at 50 µM | item C=C(c1ccccc1)[C@@]12CC[C@@H](O)[C@@H]1CC(CCCCCCCCCCOP(=O)([O-])OCC[N+](C)(C)C)=C2c1ccccc1 (relative stereo) [Compound 11g] | system: LRH-1 LBD (Homo sapiens, UniProt O00482)
Result: -2.4 °C

---

// reported pEC50 for each item listed
- measured-target: LRH-1 (Homo sapiens, UniProt O00482)
- Construct: The transfected plasmids included full-length LRH-1 in a pCI vector; expressed in transfected cells; host or cells: HeLa
- experiment: Luciferase reporter assay (SHP-luc) in HeLa cells transfected with full-length LRH-1
- Type: cell-based
- condition-summary: HeLa cells, SHP-luc reporter, 24 hours, 0.03-30 μM
Please keep in mind that pEC50 is minus log10 of the molar concentration; only the number is needed.

molecule="C=C(c1ccccc1)[C@@]12CC[C@@H](O)C1CC(CCCCCCCCOC(C)=O)=C2c1ccccc1 (stereo partly drawn) [Compound 47-exo]" measured=6.15

Task: Tell me the measured pEC50 of C=C(c1ccccc1)[C@@]12CC[C@@H](O)[C@@H]1CC(CCCCCCCCCCOP(=O)([O-])OCC[N+](C)(C)C)=C2c1ccccc1 (relative stereo) [Compound 11g] , please.
Result: 5.30

Task: Report pEC50 for C=C(c1ccc(O)cc1)[C@@]12CC[C@@H](O)C1CC(CCCCCC)=C2c1ccccc1 (mixture of isomers) [Compound 23b] please.
Result: 5.30
